These entries and their values trace back to PubChem BioAssay (NCI).

test system: HCT-15 colon; assay: NCI-60 one-dose screen, 48 h; conditions: 10 µM unless noted
Compounds without any hit were thinned out: in the full panel of roughly 83,000, 20% have a hit. Activity calls are given as the source filed them. The calls were made as follows: active = growth percent below 10; inactive = the rest.
Outcomes: 1 (yes) for active, 0 (no) for inactive

compound	assigned label
CN(C)S(=O)(=O)c1cccc(C(=O)Nc2nc(-c3ccc(F)c(F)c3)cs2)c1	0 (no)
Nc1ncnc2c1C(c1ccccc1)c1ccc3ccccc3c1O2 (stereo unspecified)	0 (no)
O=C(/C=C/c1ccccc1)Nc1ncc(Cc2ccccc2Cl)s1	0 (no)
N#C/C(=C\c1c(-c2ccccc2)[nH]c2ccccc12)C(N)=O	0 (no)
COc1cc(C2c3cc(OC(C)=O)c(OC)cc3CC3C(=O)OCC32)ccc1OC(C)=O (stereo unspecified)	0 (no)
Ic1ccc(OCCCCn2ccnc2)cc1	0 (no)
O=C(NCCNc1nccc(Nc2ccc(S(=O)(=O)Nc3ccccn3)cc2)n1)c1cccc([N+](=O)[O-])c1	0 (no)
C=CC[Se]C(=O)Cc1c(C)n(C(=O)c2ccc(Cl)cc2)c2ccc(OC)cc12	1 (yes)
COC(=O)C1Cc2ccccc2CN1C(=O)c1ccc2c(c1)Cc1ccccc1-2 (stereo unspecified)	0 (no)
CCCc1c(OC(=O)c2ccccc2)nc2[nH]c(=O)sc2c1C	0 (no)
COc1ccc(Nc2ncc(Br)c(NCCCNC(=O)C3CCCC3)n2)cc1	0 (no)
O=C1NC2(Nc3ccccc31)C(=O)Nc1c(Cl)cc(Cl)cc12 (stereo unspecified)	0 (no)
CCOCCNC1=C(Cl)C(=O)c2ccccc2C1=O	0 (no)
CN(C)c1ccc(-c2c(C#N)c(N)nn2C(=O)c2ccc(NC(=O)c3ccccn3)cc2)cc1	0 (no)
COc1cc2ncnc(Nc3ccc(S(=O)(=O)Nc4cc(C)on4)cc3)c2cc1OCCCN1CCN(c2ccc(F)cc2)CC1	0 (no)
COC12C=C/C(=C(/C(=O)OCc3ccncc3)C(=O)CCCCCCCCC3(OC)C=C/C(=C(/C(=O)OCc4ccncc4)C(=O)CCCCCCCC1)O3)O2	1 (yes)
CN1CCc2nc3sc(C(N)=O)c(N)c3c(-c3cccs3)c2C1	0 (no)
C=C1C(=O)O[C@H]2[C@H]1CC/C(Cn1cc(-c3ccccc3)nn1)=C\CC[C@@]1(C)O[C@@H]21	1 (yes)
O=c1[nH]c(-c2ccccc2)nc2sc3cc(O)ccc3c12	0 (no)
CS(=O)(=O)Nc1cc(-c2ccc3ncnc(Nc4ccc5c(cnn5Cc5ccc(F)cc5)c4)c3c2)cnc1Cl	0 (no)
CN(C)CCNC(=O)c1ccc(-c2nc3ccc4[nH]ncc4c3c3c2C2CCC3C2)cc1 (stereo unspecified)	0 (no)
COc1ccc(-c2nc3cc(C(=O)NCc4ccccc4)ccc3n2C2CCCCC2)cc1	0 (no)
Nc1nc2ccccc2c2c(=O)c3cccc(Cl)c3sc12	0 (no)
O=C1Nc2ccc(C(=O)O)cc2/C1=N/c1nnc(Sc2ccccc2)s1	0 (no)
COc1ccc(C(=O)/C=C/c2c(C(F)(F)F)nc3ccccn23)cc1OC	1 (yes)
COC12C=C/C(=C(/C(=O)OCc3ccncn3)C(=O)CCCCCCCCC3(OC)C=C/C(=C(/C(=O)OCc4ccncn4)C(=O)CCCCCCCC1)O3)O2	1 (yes)
CCOC(=O)c1c(NC(=O)c2ccc(Cl)cc2)sc2c(CN(C)C)c(O)ccc12	1 (yes)
O=C1c2ccc3c4c5ccc(c24)C(=O)N1CCCOCCCCOCCCNCc1ccc(cc1)CNCCCOCCCCOCCCN(C3=O)C5=O	1 (yes)
O=C1/C(=C/c2cn(-c3ccccc3)nc2-c2ccccc2)SC(=S)N1C1CCCCC1	0 (no)
N#CSc1c[nH]c2cccc(/C=C/C(=O)/C=C(/C=C/c3cccc4[nH]cc(SC#N)c34)OB(F)F)c12	1 (yes)
CCCCCCCCCCCCCCCCCCOc1ccccc1CC(=O)OCC[N+](C)(C)C	0 (no)

###

system: UACC-62 melanoma; experiment: NCI-60 one-dose screen, 48 h; details: 10 µM unless noted
Compounds without any hit were thinned out: in the full panel of roughly 83,000, 20% have a hit. Activity calls are given as the source filed them. Rule for the calls: active = growth percent below 10; inactive = the rest.
Outcomes: TRUE for active, FALSE for inactive

smiles entry	assigned label
Cc1[nH]c(C(=O)Nc2ccccc2OC2CCNCC2)c(Cl)c1Cl	TRUE
O=c1c2cnn(-c3ccccc3)c2n2c(CN3CCOCC3)nnc2n1-c1ccccc1	FALSE
O=C(O)c1cn(C2CC2)c2cc(N3CCN(C(=O)N(c4ccccc4)c4nc(-c5ccccc5)cs4)CC3)c(F)cc2c1=O	TRUE
C#Cc1c2c(c(OC)c3c1OCO3)[C@H]([C@H]1OC(=O)c3c1ccc(OC)c3OC)N(C)CC2	FALSE

###

test system: NCI-H460 lung; assay: NCI-60 one-dose screen, 48 h (100 = growth as untreated, 0 = no growth, -100 = all killed); conditions: 10 µM unless noted
About 83,000 compounds went through this panel and 20% of them were active in at least one assay; those are over-represented in the sample as a whole.
Quick list: growth per entry.

compound	growth [%]
O=C(CN1C(=O)S/C(=C\c2ccccc2)C1=O)Nc1ncc(Cc2ccccc2Cl)s1	110
Oc1c(I)cc(I)cc1CNCCN(Cc1ccccn1)Cc1ccccn1	-56.5
COc1cc2c(c(OC)c1OC)CCC(c1cccc(C(=O)Nc3ccc(C#N)cc3)c1)O2 (centres undefined)	56.5
Cc1cc(=O)n(C(=O)Nc2ccccc2Cl)c2cc(O)ccc12	100
O=C(NNC(=O)c1ccc(NC(=O)c2ccccn2)cc1)Nc1ccc([N+](=O)[O-])cc1	107
CCOC(=O)c1c(NC(=O)c2ccc(Cl)cc2)sc2c(CN(C)C)c(O)ccc12	71.3
O=C1NC2(Nc3ccccc31)C(=O)Nc1c(Cl)cc(Cl)cc12 (centres undefined)	102
Cn1ccc(=O)c(C(=O)Nc2nsc3ccc([N+](=O)[O-])cc23)c1	48.2
COc1ccc(C(O)c2cc3c(N)c(C(=O)Nc4cccc(Br)c4)sc3nc2C)cc1 (centres undefined)	0.823

###

test system: COLO 205 colon; assay: NCI-60 one-dose screen, 48 h; conditions: 10 µM unless noted
This is part of a sample that, as a whole, favours compounds with a hit. Of some 83,000 tested, about 20% had one in any assay. The source made the active and inactive calls. How the source made its calls: active means growth percent below 10; inactive means the rest.
Outcomes: active, inactive

compound	assigned label
c1ccc([P+](c2ccccc2)(c2ccccc2)c2ccc3c4ccc([P+](c5ccccc5)(c5ccccc5)c5ccccc5)c5cccc(c6cccc2c63)c54)cc1	active
CCCCCOC(=O)c1c(C)[nH]c(/C=C2\N=C(c3ccc[nH]3)C=C2OC)c1C	active
CN(C)S(=O)(=O)c1cccc(C(=O)Nc2nc(-c3ccc(F)c(F)c3)cs2)c1	inactive
O=C(N/N=C/c1c(Cl)cccc1Cl)c1cccnc1Nc1cccc(C(F)(F)F)c1	inactive
Nc1nc(-c2ccc(Cl)cc2)nc2c1sc(=S)n2-c1ccccc1	inactive
COc1ccc(/C=N\Nc2nc(SCCC(C)C)nc(-c3ccc(OC)cc3)c2C#N)cc1	inactive
COc1ccc(C(=O)C/C(=C\c2ccc(Cl)cc2)C(=O)NCc2ccccc2)cc1	inactive
CC(C)(C)CC(C)(C)NC(=O)Nc1ncccc1OCc1ccccc1	inactive
Cc1ccc(-c2nc(N3CCCNCC3)c3oc(-c4ccc(C)cc4)nc3n2)cc1	active
CCN(CC)CCCCCNc1cc(OC(=O)c2ccc(Cl)cc2)cc2cccnc12	inactive
O=C(N/N=C/c1ccc(Cl)cc1)c1[nH]c2ccc(Cl)cc2c1-c1ccccc1	active
COC1/C=C/OC2(C)Oc3c(C)c(O)c4c(O)c(c(/C=N/Nc5ccc([N+](=O)[O-])cc5[N+](=O)[O-])c(O)c4c3C2=O)NC(=O)C(C)=C/C=C/C(C)C(O)C(C)C(O)C(C)C(OC(C)=O)C1C (stereo not given)	inactive
CC(C)c1ccc(C(=O)Nc2sc3c(c2C(N)=O)CCC(=O)C3)cc1	active
Cn1cc(-c2csc(-c3cn(C(=O)OC(C)(C)C)c4ccc(Br)cc34)n2)c2ccnc(Cl)c21	inactive
CC(=O)N1N=C(c2ccc(Nc3nc(Nc4ccccc4)nc(Nc4ccccc4)n3)cc2)CC1c1ccccc1 (stereo not given)	inactive

###

tested on: HCT-116 colon; test: NCI-60 one-dose screen, 48 h (100 = growth as untreated, 0 = no growth, -100 = all killed); conditions: 10 µM unless noted
This is part of a sample that, as a whole, favours compounds with a hit. Of some 83,000 tested, about 20% had one in any assay.
fulfilled means recorded growth is 40% or above; not fulfilled means it is below 40%.

compound	assigned label
Cc1cccc(/C=C/c2c(C(=O)/C=C/c3ccccc3)c(C)nc3ccccc23)c1	not fulfilled
CC(=O)Oc1ccc(C)cc1C	fulfilled
CCOC(=O)C/C(=N\Nc1cc(=O)[nH]c2ccc(Br)cc12)C(=O)OCC	fulfilled
CCN(CC)CC(O)COc1c(Br)c(Br)c(Br)c2c1OC(C)(C)C2 (stereo not given)	fulfilled
COc1ccc(OC)c(-c2nc(SCC(=O)c3ccc(C#N)cc3)[nH]c(=O)c2C#N)c1	fulfilled
COc1cc2c(cc1OCCCN1CCN(CCCOc3cc4c(cc3OC)C(=O)N3CCC[C@H]3C=N4)CC1)C=CC(C)(C)O2	not fulfilled
CCN(CC)CCn1c2ccc(O)cc2c2sc3cc(O)ccc3c(=O)c21	not fulfilled
C=CCn1c(SCC(=O)Nc2ccc(C(=O)/C=C/c3ccc(Cl)cc3)cc2)nnc1-c1ccc(Br)cc1	not fulfilled
CC(=O)O[C@@H]1C[C@]2(C(C)C)O[C@@]1(C)[C@@H]1CCC(C)=C1[C@@H]2OC(=O)/C=C/c1ccccc1	fulfilled
